target: Neuropeptide Y receptor type 4 (Homo sapiens); assay: Displacement of [3H]UR-KK200 from human neuropeptide Y Y4 receptor expressed in CHO-mtAEQ cells co-expressing Gqi5 measured after 90 mins by scintillation counting analysis; assay type: cell-based; settings: read-out: pKi (converted)
Sequence (P50391 whole entry): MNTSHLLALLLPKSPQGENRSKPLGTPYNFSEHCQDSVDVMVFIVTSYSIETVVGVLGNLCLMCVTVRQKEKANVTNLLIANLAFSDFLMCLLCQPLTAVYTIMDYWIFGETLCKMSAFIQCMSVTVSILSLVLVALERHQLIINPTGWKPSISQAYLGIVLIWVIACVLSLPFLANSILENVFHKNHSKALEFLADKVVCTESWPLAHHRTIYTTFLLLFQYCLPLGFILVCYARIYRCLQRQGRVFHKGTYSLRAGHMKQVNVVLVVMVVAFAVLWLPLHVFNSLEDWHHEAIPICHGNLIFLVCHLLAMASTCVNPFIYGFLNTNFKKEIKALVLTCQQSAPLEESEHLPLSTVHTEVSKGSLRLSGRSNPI
Property: Ki (nM)

[a] CC(C)C[C@H](NC(=O)[C@@H]1CCCNC(=N)NC(=O)NCCCCNC(=O)CCC(=O)N[C@@H](CCCNC(=N)N)C(=O)N[C@@H](Cc2ccc(O)cc2)C(=O)N1)C(=O)N[C@@H](CCCNC(=N)N)C(=O)N[C@@H](Cc1ccc(O)cc1)C(N)=O
[b] CC(C)C[C@H](NC(=O)[C@H](CCCNC(=N)NC(=O)NCCCCN)NC(=O)[C@H](Cc1c[nH]c2ccccc12)NC(=O)[C@H](CCCNC(=N)N)NC(=O)CCC(=O)O)C(=O)N[C@@H](CCCNC(=N)N)C(=O)N[C@@H](Cc1ccc(O)cc1)C(N)=O
Prompt: Given a and given b , which shows the smaller recorded Ki? // caller expects the label of the chosen entry
Completion: a

* * *

target: UniProt P50391; assay: Displacement of [3H]UR-KK200 from human neuropeptide Y Y4 receptor expressed in CHO-mtAEQ cells co-expressing Gqi5 assessed as fold change in affinity measured after 90 mins by scintillation counting analysis relative to Ac-Arg-Tyr-Arg-Leu-Arg-Tyr-NH2; type: cell-based; conditions: filed as agonist
Residues, ends and D or L forms follow the SMILES beside them.
Property: fold change (FC)
Reply briefly: the number, and no unit.

Compound: CC(C)C[C@H](NC(=O)[C@@H]1CCCNC(=N)NC(=O)NCCCCNC(=O)CCC(=O)N[C@@H](CCCNC(=N)N)C(=O)N[C@@H](Cc2ccc(O)cc2)C(=O)N1)C(=O)N[C@@H](CCCNC(=N)N)C(=O)N[C@@H](Cc1ccc(O)cc1)C(N)=O
Target Entity: UniProt P50391
Value Measured: 71

Attention now turns to another entry.
Prompt: Specify fold change (FC) for CC(C)C[C@H](NC(=O)[C@H](CCCNC(=N)N)NC(=O)[C@@H]1CCC(=O)N[C@@H](CCCNC(=N)N)C(=O)NCC(=O)N[C@@H](Cc2ccc(O)cc2)C(=O)N1)C(=O)N[C@@H](CCCNC(=N)N)C(=O)N[C@@H](Cc1ccc(O)cc1)C(N)=O (HELM PEPTIDE1{R.G.Y.E.R.L.R.Y.[am]}$PEPTIDE1,PEPTIDE1,1:R1-4:R3$$$V2.0) and stop.
Completion: 1.4

* * *

Biological target: Neuropeptide Y receptor type 1 (Homo sapiens, UniProt P25929)
Sequence (P25929 whole entry): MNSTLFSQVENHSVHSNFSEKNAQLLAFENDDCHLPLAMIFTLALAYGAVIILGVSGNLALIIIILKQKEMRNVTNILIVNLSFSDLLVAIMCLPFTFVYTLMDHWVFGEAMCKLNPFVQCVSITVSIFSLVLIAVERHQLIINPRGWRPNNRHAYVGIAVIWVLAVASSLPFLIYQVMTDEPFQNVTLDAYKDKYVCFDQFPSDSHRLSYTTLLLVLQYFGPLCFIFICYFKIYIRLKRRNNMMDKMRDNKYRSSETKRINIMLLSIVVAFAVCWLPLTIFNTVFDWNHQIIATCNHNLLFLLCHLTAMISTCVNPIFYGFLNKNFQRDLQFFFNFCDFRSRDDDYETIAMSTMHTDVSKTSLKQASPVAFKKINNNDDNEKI
Assay: Displacement of [3H]UR-MK299 from human neuropeptide Y Y1 receptor in human SK-N-MC cells measured after 90 mins by scintillation counting analysis
Assay type: cell-based
Details: read-out: pKi (converted)
Starred links: 1 amine or outer side, 2 acyl side, 3 side chain; linkers in the order of their positions; H or OH if unused. Residues, ends and D or L forms follow the SMILES beside them. Groups on a side chain read outwards from the residue. *: point of attachment. Suc = O=C(CCC(=O)[*:2])[*:1]; NH(CH2)4NH2 = NCCCCN*; CO = O=C([*:1])[*:2]
Ki by entry:

These recorded examples may help you get a feel for the data.
Compound: CC(C)C[C@H](NC(=O)[C@H](CCCNC(=N)NC(=O)NCCCCN)NC(=O)[C@H](Cc1c[nH]c2ccccc12)NC(=O)[C@H](CCCNC(=N)N)NC(=O)CCC(=O)O)C(=O)N[C@@H](CCCNC(=N)N)C(=O)N[C@@H](Cc1ccc(O)cc1)C(N)=O
Ki: > 10 µM
//
Compound: CC(C)C[C@H](NC(=O)[C@@H]1CCC(=O)NCC(=O)N[C@H](CCCNC(=N)N)C(=O)N[C@@H](CCCNC(=N)N)C(=O)N1)C(=O)N[C@@H](CCCNC(=N)N)C(=O)N[C@@H](Cc1ccc(O)cc1)C(N)=O
Ki: > 3.16 µM
//
Compound: CC(C)C[C@H](NC(=O)[C@@H]1CCCNC(=N)NC(=O)NCCCCNC(=O)CCC(=O)N[C@@H](CCCNC(=N)N)C(=O)N[C@@H](Cc2c[nH]c3ccccc23)C(=O)N1)C(=O)N[C@@H](CCCNC(=N)N)C(=O)N[C@@H](Cc1ccc(O)cc1)C(N)=O
Ki: > 10 µM

Now turn to the next compound.
Prompt: Consider the compound CC(C)C[C@H](NC(=O)[C@H](CCCNC(=N)NC(=O)NCCCCN)NC(=O)[C@H](CCCNC(=N)N)NC(=O)CCC(=O)O)C(=O)N[C@@H](CCCNC(=N)N)C(=O)N[C@@H](Cc1ccc(O)cc1)C(N)=O (Suc-RR([CO-NH(CH2)4NH2])LRY-NH2) . State its measured Ki.
Completion: > 10 µM
